tested on: HCV genotype 2a-specific NS5A gene within the 1b-replicon; assay: Luciferase replicon assay, NS5A-intergenotypic stable cell line genotype 2a; assay type: cell-based; conditions: genotype 2a; read-out: EC50 2a
pEC50: −log10 of the molar value.
experimental-readout: pEC50

Inquiry: Supply recorded pEC50 for `COC(=O)N[C@H](C(=O)N1CCC[C@H]1c1nc2ccc(-c3csc4c(C#Cc5cnc([C@@H]6CCCN6C(=O)[C@H](NC(=O)OC)c6ccccc6)[nH]5)csc34)cc2[nH]1)C(C)C` here.
Reply text: > 10.00

###

test system: GS4.1 cells; assay: Cytotoxicity evaluation in GS4.1 cells (Cell Titer 96 AQueous One); format: cell-based, human; settings: cellular viability
experimental-readout: CC50

Previously resolved entries follow.
>>> result("COC(=O)N[C@H](C(=O)N1CCC[C@H]1c1ncc(-c2ccc(-c3cn4cc(NC(=O)C5CCCN5C(=O)CNC(=O)OC(C)(C)C)nc4s3)cc2)[nH]1)C(C)C (stereo partly shown)")
"> 75 µM"
>>> result("COC(=O)N[C@H](C(=O)N1CCC[C@H]1C(=O)Nc1ccc(-c2cn3cc(NC(=O)OC(C)(C)C)nc3s2)cc1)C(C)C")
"10 to 75 µM"
>>> result("COC(=O)N[C@H](C(=O)N1CCC[C@H]1c1ncc(-c2ccc(-c3cn4cc(NC(=O)[C@@H]5CCCN5C(=O)[C@H](NC(=O)OCC(C)C)c5ccccc5)nc4s3)cc2)[nH]1)C(C)C")
"> 75 µM"
>>> result("COC(=O)N[C@H](C(=O)N1CCC[C@H]1c1ncc(-c2ccc(-c3cn4cc(NC(=O)[C@@H]5CCCN5C(=O)[C@H](NC(=O)OC(C)(C)C)c5ccccc5)nc4s3)cc2)[nH]1)C(C)C")
"> 75 µM"
>>> result("COC(=O)N[C@H](C(=O)N1CCCC1c1ncc(-c2ccc(-c3csc4cc(C(=O)OC)[nH]c34)cc2)[nH]1)C(C)C (stereo partly shown)")
"10 to 75 µM"

Inquiry: Provide measured CC50 on GS4.1 cells for COC(=O)N[C@H](C(=O)N1CCCC1c1ncc(-c2ccc(-c3csc4c(-c5ccccc5)csc34)cc2)[nH]1)C(C)C (stereo partly shown) please.
Reply text: 10 to 75 µM

Inquiry: Report value only: CC50, GS4.1 cells, `CCOC(=O)N[C@@H](C(=O)N1CCC[C@H]1C(=O)Nc1cn2cc(-c3ccc(-c4cnc([C@@H]5CCCN5C(=O)[C@@H](NC(=O)OC)C(C)C)[nH]4)cc3)sc2n1)c1ccccc1`
Reply text: 10 to 75 µM

Inquiry: Report value: CC50, system: GS4.1 cells, compound: COC(=O)N[C@H](C(=O)N1CCCC1c1nc(-c2ccc(-c3c(C(=O)OC)[nH]c4c(-c5ccc(-c6cnc(C7CCCN7C(=O)[C@@H](NC(=O)OC)C(C)C)[nH]6)cc5)csc34)cc2)c[nH]1)C(C)C (stereo partly shown)
Reply text: > 75 µM

###

tested on: GS4.1 cells; experiment: Cytotoxicity evaluation in GS4.1 cells (Cell Titer 96 AQueous One); assay type: cell-based, human; conditions: cellular viability
experimental-readout: CC50

Guide cases for CC50, answers given:
>>> result("CC(C)(C)OC(=O)N[C@@H](C(=O)N1CCOC[C@H]1C(=O)Nc1cn2cc(-c3ccccc3)sc2n1)c1ccccc1")
"> 75 µM"
>>> result("COC(=O)N[C@H](C(=O)N1CCCC1c1nc(-c2ccc(-c3cc4sc(-c5ccc(-c6cnc([C@@H]7CCCN7C(=O)[C@@H](NC(=O)OC)C(C)C)[nH]6)cc5)cc4s3)cc2)c[nH]1)C(C)C (stereo partly drawn)")
"> 75 µM"

From here, focus on the item given below.
Inquiry: Provide CC50 value for the following compound: `COC(=O)N[C@H](C(=O)N1CCC[C@H]1c1cc(-c2ccc(-c3cn4cc(NC(=O)[C@@H]5CCCN5C(=O)[C@H](NC(=O)OC(C)C)c5ccccc5)nc4s3)cc2)[nH]n1)C(C)C`
Reply text: > 75 µM
